System: α-isomaltosyl-transferring enzyme from Bacillus globisporus C11
TEST PROTOCOL: Specificity to transferring acceptor
Type: biochemical
Design: key: −: no saccharide transferred product was formed; ±: a saccharide-transferred product formed in an amount of less than one percent to the total sugars; +: a saccharide-transferred product was formed in an amount of over one percent but below 10% to the total sugars; ++: a saccharide-transferred product was formed in an amount of over 10% to the total sugars
CONDITION SUMMARY: panose as saccharide donor, 10 units/g substrate, 3.2% (w/v), 30° C., pH 6.0, 24 hours
QUANTITY MEASURED: Product of transferring reaction, Enzyme of Strain C11

COMPOUND: O=C[C@@H](O)[C@@H](O)[C@H](O)[C@H](O)CO [D-Mannose, D-mannose]
MEASURED: −
